// cross-study collection: IC50 for BRD2 (Homo sapiens (Human))

Here's what some known entries look like.
| Molecule | Result |
| --- | --- |
| C=Cc1cccc(N2CCn3nnc(C)c3-c3ccccc32)c1 | 100 to 1000 nM |
| Cc1cc(N2C(=O)c3cc(-c4ccc(=O)n(C)c4)n(C)c3C2c2ccc(Cl)cc2)cn(C)c1=O (stereo not shown) | 19 nM |
| Cc1cc(N2C(=O)c3nn(C4CN(C)C4)c(C)c3C2c2ccc(Cl)cc2)cn2c(C)nnc12 (stereo not shown) | 98 nM |
| Cc1cn(C)c2c1C(=O)N(c1cc(C)c3nnc(C)n3c1)C2c1ccc(Cl)cc1 (stereo not shown) | 36 nM |

Go through the items and report each one's IC50.
1. Cc1cn(C2CN(C)C2)c2c1C(=O)N(c1cc(C)c3nnn(C)c3n1)C2c1ccc(Cl)cc1 (stereo not shown)
2. Cc1cc(N2C(=O)c3nc(C4=CCOCC4)[nH]c3[C@H]2c2ccc(Cl)cc2)cn2c(C)nnc12
3. Cc1cc(N2C(=O)c3nn(C4CC4)cc3C2c2ccc(Cl)cc2)cn(C)c1=O (stereo not shown)

[reply]
23 nM
63 nM
78 nM

Go through the items and report each one's IC50.
1. Cc1cc(N2C(=O)c3nc(C4CCOCC4)n(C(C)C)c3C2c2ccc(Cl)cc2)cn2c(C)nnc12 (stereo not shown)
2. COc1ncccc1-c1cc2c(n1C)C(c1ccc(Cl)cc1)N(c1cc(C)c3nnc(C)n3c1)C2=O (stereo not shown)
3. COc1ncccc1-c1nc2c([nH]1)C(c1ccc(Cl)cc1)N(c1cc(C)c3nnn(C)c3c1)C2=O (stereo not shown)
4. Cc1nn(C2CC2)c2c1C(c1ccc(Cl)cc1)N(c1ccc3nnn(C)c3n1)C2=O (stereo not shown)
5. COc1ncccc1-n1nc(C)c2c1C(=O)N(c1cc(Cl)c(=O)n(C)c1)C2c1ccc(Cl)cc1 (stereo not shown)
6. COc1ncc(-n2nc3c(c2C(C)C)C(c2ccc(Cl)cc2)N(c2cc(C)c4nnc(C)n4c2)C3=O)c(OC)n1 (stereo not shown)

[reply]
19 nM
50 nM
35 nM
72 nM
60 nM
43 nM

----------
// cross-study collection: pIC50 for BRD2 (Homo sapiens (Human))
Numbers only, as −log10 of the molar value.

| Compound | pIC50 |
| --- | --- |
| Cc1ncc(-c2nc3c(n2C(C)C)C(c2ccc(Cl)cc2)N(c2cc(C)c(=O)n(C)c2)C3=O)s1 (stereo not shown) | 7.09 |

Go through the items and report each one's pIC50.
1. Cc1cc(N2C(=O)c3nn(C4COC4)c(C)c3C2c2ccc(Cl)cc2)cn(C)c1=O (stereo not shown)
2. COc1ncccc1-c1nc2c(n1C(C)C)[C@@H](c1ccc(Cl)cc1)N(c1cc(OC)c3nnn(C)c3c1)C2=O
3. CCOC(=O)n1ccc2c1C(c1ccc(Cl)cc1)N(c1cc(C)c3nnc(C)n3c1)C2=O (stereo not shown)
4. Cc1cc(N2C(=O)c3nc(C4=CCCN(C)C4)n(C(C)C)c3[C@H]2c2ccc(Cl)cc2)cn2c(C)nnc12
5. Cc1cc(N2C(=O)c3cc(-c4cccn(C)c4=O)n(C)c3C2c2ccc(Cl)cc2)cn(C)c1=O (stereo not shown)
6. CCn1c(-c2ccnn2C)nc2c1C(=O)N(c1cc(C)c(=O)n(C)c1)C2c1ccc(Cl)cc1 (stereo not shown)

[reply]
1. 6.72
2. 7.48
3. 7.42
4. 7.54
5. 6.96
6. 7.19

Go through the items and report each one's pIC50.
1. COc1nccc(-n2nc(C)c3c2C(=O)N(c2cc(C)c(=O)n(C)c2)C3c2ccc(Cl)cc2)n1 (stereo not shown)
2. COc1ccc(-c2nc3c(n2C(C)C)C(c2ccc(Cl)cc2)N(c2cc(C)c4nnn(C)c4n2)C3=O)cn1 (stereo not shown)
3. COc1cc(N2C(=O)c3nc(C4=CCN(C)CC4)n(C(C)C)c3C2c2ccc(Cl)cc2)cc2c1nnn2C (stereo not shown)

[reply]
1: 6.21; 2: 7.59; 3: 6.82
